system: T1, recombinant human PD-1 Fc chimera (human, UniProt Q15116 25-167)
T1 construct: Bought (R&D 1086-PD); Labelled with europium cryptate in the PD-L2 HTRF assay; also called human PD-1 (R&D Systems cat no. 1086-PD); human PD-1-huFc; not shown: human Fc of the bought chimera
T1 sequence (Q15116 25-167, change not shown): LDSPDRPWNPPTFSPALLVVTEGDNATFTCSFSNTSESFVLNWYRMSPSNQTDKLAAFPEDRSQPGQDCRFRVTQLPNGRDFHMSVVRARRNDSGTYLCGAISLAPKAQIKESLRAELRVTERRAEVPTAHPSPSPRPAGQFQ
method-summary: SPR (Biacore T200), PD-1-huFc amine-coupled to CM5, single cycle kinetics, 1:1 fit
readout-label: kon (M⁻¹ s⁻¹)
Respond with the bare value in M⁻¹ s⁻¹.

Humabody VH 1.47 (VHH, human VH single domain antibody) VHH: EVQLVESGGGLVQPGRSLRLSCAASGFTFDDYAFHWVRQAPGKDLEWVSGISWNSGSYGYADSVKGRFTISRDNAKNSLYLQMNSLRAEDTALYYCVREKGPGLTGSTADYYGLDAWGQGTMVTVSS :: 248000
Humabody VH 2.12 (VHH, human VH single domain antibody) VHH: EVQLVESGGGVVRPGGSLRLSCAASGFTFDDYAMSWVRQAPGKGLEWVSGITWNAGSTGYADSVKGRFTISRDNAKNSLYLQMNSLRAEDTALYYCVRDKYSYAWSYDDFDIWGQGTMVTVSS :: 5.5e+06
Humabody VH 1.50 (VHH, human VH single domain antibody) VHH: EVQLVESGGGLVQPGRSLRLSCAASGFTFDDYAFHWVRQAPGKDLEWVSGISWNAGSQGYADSVKGRFTISRDNAKNSLYLQMNSLRAEDTALYYCVREKGPGLTGSTADYYGLDAWGQGTMVTVSS :: 160000

Given Humabody VH 1.48 (VHH, human VH single domain antibody) VHH: EVQLVESGGGLVQPGRSLRLSCAASGFTFDDYALHWVRQAPGKDLEWVSGISWNSGSQGYADSVKGRFTISRDNAKNSLYLQMNSLRAEDTALYYCVREKGPGLTGSTADYYGLDAWGQGTMVTVSS , state its recorded kon. 180000
